Where do the numbers come from? From patent US10604510B2.

experiment: Solubility of Form A at 20° C. and 40° C.; assay type: physicochemical; conditions: organic solvent or mixture, thermodynamic from solid; DMSO/EtOAc 1:1 v/v, 20° C., stirred 2 days
experimental readout: solubility at 2 days (mg/mL)

compound	experimental value
CCCN(CCC)C(=O)C1=Cc2ccc(-c3ccc(C(=O)N4CCCC4)cc3)cc2N=C(N)C1 [Form A]	15

====

assay: Solubility of Form A at 20° C. and 40° C.; type: physicochemical; conditions: organic solvent or mixture, thermodynamic from solid; DMSO/TBME 1:1 v/v, 40° C., stirred 2 days

compound	solubility at 2 days
CCCN(CCC)C(=O)C1=Cc2ccc(-c3ccc(C(=O)N4CCCC4)cc3)cc2N=C(N)C1 [Form A]	44.6 mg/mL

====

experiment: Solubility of Forms A and G after 40 min stirring; format: physicochemical; details: EtOH, 22 °C, organic solvent or mixture, thermodynamic from solid

mol smiles	solubility at 40 min
CCCN(CCC)C(=O)C1=Cc2ccc(-c3ccc(C(=O)N4CCCC4)cc3)cc2N=C(N)C1	11.7 mg/mL

====

assay: Slurry screening, solubility determined by HPLC; assay type: physicochemical; conditions: organic solvent or mixture, thermodynamic from solid; slurry stirred 5 days; solvent heptane

mol smiles	units	solubility at 5 days
CCCN(CCC)C(=O)C1=Cc2ccc(-c3ccc(C(=O)N4CCCC4)cc3)cc2N=C(N)C1	µg/mL	20

====

Experiment: Slurry screening, solubility determined by HPLC
Format: physicochemical
Conditions: organic solvent or mixture, thermodynamic from solid; slurry stirred 5 days; solvent chlorobenzene
Procedure: For purity estimation and determination of the solubility in solution a generic in-house HPLC method was used. HPLC was performed using a Phenomenex Luna 3 μm C18 (50×4.6 mm) column and detected with a DAD detector, recording at 214 nm. The slurry experiments were performed by taking approximately 40 mg starting material and slurrying in each of the solvent mixtures as detailed Table 3 using a magnetic stir bar. […]
experimental readout: solubility at 5 days (mg/mL)

mol smiles	experimental readout	experimental value
CCCN(CCC)C(=O)C1=Cc2ccc(-c3ccc(C(=O)N4CCCC4)cc3)cc2N=C(N)C1	solubility at 5 days	1.81

====

assay: Slurry screening, solubility determined by HPLC; type: physicochemical; conditions: organic solvent or mixture, thermodynamic from solid; slurry stirred 5 days; solvent dioxane

molecule	solubility at 5 days, mg/mL
CCCN(CCC)C(=O)C1=Cc2ccc(-c3ccc(C(=O)N4CCCC4)cc3)cc2N=C(N)C1 [starting material]	5.1

====

test: Slurry screening, solubility determined by HPLC; type: physicochemical; settings: organic solvent or mixture, thermodynamic from solid; slurry stirred 5 days; solvent NMP
experimental readout: solubility at 5 days (mg/mL)

compound	experimental readout	experimental value
CCCN(CCC)C(=O)C1=Cc2ccc(-c3ccc(C(=O)N4CCCC4)cc3)cc2N=C(N)C1 [starting material]	solubility at 5 days	52.3

====

assay: Slurry screening, solubility determined by HPLC; type: physicochemical; settings: organic solvent or mixture, thermodynamic from solid; slurry stirred 5 days; solvent DMSO
experimental readout: solubility at 5 days (mg/mL)

mol smiles	units	experimental value
CCCN(CCC)C(=O)C1=Cc2ccc(-c3ccc(C(=O)N4CCCC4)cc3)cc2N=C(N)C1	mg/mL	28.8

====

test: Slurry screening, solubility determined by HPLC; assay type: physicochemical; details: organic solvent or mixture, thermodynamic from solid; slurry stirred 5 days; solvent acetone

mol smiles	units	solubility at 5 days
CCCN(CCC)C(=O)C1=Cc2ccc(-c3ccc(C(=O)N4CCCC4)cc3)cc2N=C(N)C1	µg/mL	1370
